Hello, the source for this data is patent US7425558B2, in case you need it.

# EXPERIMENTAL SYSTEM: cloned human 5-HT1A receptors (Homo sapiens)
# Sequence (P08908 whole entry): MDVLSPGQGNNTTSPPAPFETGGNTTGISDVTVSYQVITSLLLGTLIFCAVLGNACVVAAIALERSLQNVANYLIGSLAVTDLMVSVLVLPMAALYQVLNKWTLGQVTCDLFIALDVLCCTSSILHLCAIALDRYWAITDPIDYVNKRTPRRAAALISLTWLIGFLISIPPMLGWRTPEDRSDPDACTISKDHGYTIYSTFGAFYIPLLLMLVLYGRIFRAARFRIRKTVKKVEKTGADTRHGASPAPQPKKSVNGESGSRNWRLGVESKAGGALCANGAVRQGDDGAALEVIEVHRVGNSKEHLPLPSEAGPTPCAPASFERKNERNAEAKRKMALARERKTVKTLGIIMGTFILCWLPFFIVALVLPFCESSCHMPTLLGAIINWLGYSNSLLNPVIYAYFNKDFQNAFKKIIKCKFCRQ
# MEASUREMENT NOTES: Binding to cloned human 5-HT1A receptors in CHO cells, [3H]8-OH-DPAT radioligand
# CONDITION INFO: read-out: 5-HT1A Affinity Ki
ENDPOINT LABEL: pKi
The meaning of pKi here: minus log10 of the concentration in molar units.

IN: Bench note: what pKi did `C[C@H](CN(C(=O)c1ccc(C#N)cc1)c1ccccn1)N1CCN(c2cccc3c2OCCO3)CC1` show?
OUT: 8.80
